Measured values drawn from PubChem BioAssay (Tox21) for this set.

Test system: estrogen-related receptor alpha (ERRalpha) with PGC-1alpha coactivator, human
procedure.summary: qHTS assay to identify small molecule antagonists of the estrogen related receptor signaling pathway with the pleiotropic PPARgamma coactivator (PGC) (AID 1224821); further: nearly all actives have a fitted effect of over 50% in size
conditions: ERR/PGC reporter cell line, luciferase, antagonist mode; series mostly up to 46.1 µM
Inconclusive results are not listed. Activity calls are given as the source filed them. The call rests on the fitted dose curve.
Labels: true (1) (active), false (0) (inactive)

compound	assay.system	answer.label
COc1ccccc1N1CCN(CCCNc2c(C)c(=O)n(C)c(=O)n2C)CC1	estrogen-related receptor alpha (ERRalpha) with PGC-1alpha coactivator, human	false (0)
CCCCCCCCCC[Si](C)(C)CCC(=O)NC(Cc1ccc(C)cc1)c1ccccc1 (configuration not stated)	estrogen-related receptor alpha (ERRalpha) with PGC-1alpha coactivator, human	false (0)
N[C@H](C(=O)O)[C@H](Cc1ccccc1)C(=O)O	estrogen-related receptor alpha (ERRalpha) with PGC-1alpha coactivator, human	false (0)
NC(=O)c1cccc(N)c1	estrogen-related receptor alpha (ERRalpha) with PGC-1alpha coactivator, human	false (0)
COc1cc2c(CCNC(C)=O)c[nH]c2cc1O	estrogen-related receptor alpha (ERRalpha) with PGC-1alpha coactivator, human	false (0)
c1ccc(C(NCc2cccnc2)(c2ccccc2)c2ccccc2)cc1	estrogen-related receptor alpha (ERRalpha) with PGC-1alpha coactivator, human	true (1)
O=C(N[C@@H](Cc1ccccc1)C(=O)CCl)OCc1ccccc1	estrogen-related receptor alpha (ERRalpha) with PGC-1alpha coactivator, human	true (1)
NCCCCNCCCN	estrogen-related receptor alpha (ERRalpha) with PGC-1alpha coactivator, human	false (0)
CC1(C)CCC2=C(O1)c1ccccc1C(=O)C2=O	estrogen-related receptor alpha (ERRalpha) with PGC-1alpha coactivator, human	true (1)
CCc1ccc2c(-c3cccc(Cl)c3)nc(=O)n(CC)c2n1	estrogen-related receptor alpha (ERRalpha) with PGC-1alpha coactivator, human	false (0)
Nc1nc(N)c(N=O)c(OCC2CCCCC2)n1	estrogen-related receptor alpha (ERRalpha) with PGC-1alpha coactivator, human	false (0)
O=C(O)Cc1c[nH]c2ccc(O)cc12	estrogen-related receptor alpha (ERRalpha) with PGC-1alpha coactivator, human	false (0)
Nc1nc2c(nc(Br)n2C2OC3COP(=O)(O)O[C@@H]3C2O)c(=O)[nH]1 (some centres not stated)	estrogen-related receptor alpha (ERRalpha) with PGC-1alpha coactivator, human	false (0)
CC(=O)[C@H]1CCC2C3CC=C4C[C@@H](OS(=O)(=O)O)CC[C@]4(C)C3CC[C@@]21C (some centres not stated)	estrogen-related receptor alpha (ERRalpha) with PGC-1alpha coactivator, human	false (0)
COc1ccc(Br)cc1S(=O)(=O)NC(=O)/C=C/c1ccccc1Cc1ccc2ccccc2c1	estrogen-related receptor alpha (ERRalpha) with PGC-1alpha coactivator, human	false (0)
Nc1nc(Cl)nc2c1ncn2[C@@H]1O[C@H](CO)C(O)[C@H]1O (some centres not stated)	estrogen-related receptor alpha (ERRalpha) with PGC-1alpha coactivator, human	false (0)
NC(=O)C1=CN(C2OC(COP(=O)(O)OP(=O)(O)OC[C@H]3O[C@@H](n4cnc5c(N)ncnc54)[C@H](OP(=O)(O)O)C3O)C(O)C2O)C=CC1 (some centres not stated)	estrogen-related receptor alpha (ERRalpha) with PGC-1alpha coactivator, human	false (0)
CCNC(=O)[C@H]1O[C@@H](n2cnc3c(N)nc(NCCc4ccc(CCC(=O)O)cc4)nc32)[C@H](O)C1O (some centres not stated)	estrogen-related receptor alpha (ERRalpha) with PGC-1alpha coactivator, human	false (0)
COc1cc2c(cc1O)CC[C@@H]1[C@@H]2CC[C@]2(C)[C@@H](O)CC[C@@H]12	estrogen-related receptor alpha (ERRalpha) with PGC-1alpha coactivator, human	false (0)
NS(=O)(=O)c1cccc2c1c([N+](=O)[O-])cc1nc(O)c(O)nc12	estrogen-related receptor alpha (ERRalpha) with PGC-1alpha coactivator, human	false (0)
O=C(O)CNC(=O)C(CS)Cc1ccccc1 (configuration not stated)	estrogen-related receptor alpha (ERRalpha) with PGC-1alpha coactivator, human	false (0)
O=c1cc(O)cc(/C=C/c2ccc(O)c(O)c2)o1	estrogen-related receptor alpha (ERRalpha) with PGC-1alpha coactivator, human	false (0)

###

assay.system: Glucocorticoid receptor (Homo sapiens)
procedure.summary: qHTS assay to identify small molecule antagonists of the glucocorticoid receptor (GR) signaling pathway (AID 720692); further: potency means the concentration at half of the fitted maximal effect
conditions: GR-bla HeLa, beta-lactamase FRET ratio, dexamethasone-stimulated, 18 h; series mostly up to 58.5 µM
Results filed as inconclusive are left out. Calls of active or inactive are those of the source. Calls follow the shape of the dose curve; as a rule, active = well fitted inhibition curve with a large enough effect in the signal ratio in the repeat runs (not every such curve was filed as active); inconclusive = weak or mixed curves, or effect the other way; inactive = no such curve, though single readings can be large or run the other way; the % refers to the signal ratio.

smiles.code	Potency
C[C@@H]1O[C@@H](OC[C@H]2O[C@@H](Oc3c(-c4ccc(OCCO)c(OCCO)c4)oc4cc(OCCO)cc(O)c4c3=O)[C@H](O)[C@@H](O)[C@@H]2O)[C@H](O)[C@H](O)[C@H]1O	inactive
O=C(O)/C=C/C(=O)Nc1ccc(S(=O)(=O)Nc2nccs2)cc1	inactive
CN1CC[C@H](c2c(O)cc(O)c3c(=O)cc(-c4ccccc4Cl)oc23)[C@H](O)C1	0.674 µM (active)

###

procedure.summary: qHTS assay to identify small molecule antagonists of the androgen receptor (AR) signaling pathway - cell viability counter screen (AID 743033; further: nearly all actives have a fitted effect of over 45% in size)
conditions: AR-bla HEK293 viability, CellTiter-Glo luminescence, 16 h; series mostly up to 58.5 µM
Results filed as inconclusive are left out. Activity calls are given as the source filed them. Calls follow the shape of the dose curve; as a rule, active = well fitted cell-killing curve with a large enough effect in the repeat runs; inconclusive = weak or mixed curves; inactive = no such curve, though single readings can be large or run the other way.
Classes used: active, inactive

compound	answer.label
CNCC(=O)N[C@@H](CCCN=C(N)N)C(=O)N[C@H](C(=O)N[C@@H](Cc1ccc(O)cc1)C(=O)N[C@H](C(=O)N[C@@H](Cc1cnc[nH]1)C(=O)N1CCC[C@H]1C(=O)N[C@@H](C)C(=O)O)C(C)C)C(C)C	inactive
CN1CCN(CCCN2c3ccccc3Sc3ccc(Cl)cc32)CC1	active
C[N+](C)(C)CCOP(=O)(O)OP(=O)([O-])OC[C@H]1O[C@@H](n2ccc(N)nc2=O)[C@H](O)[C@@H]1O	inactive
O=C(O)c1cc2cc(Cc3cccnc3)ccc2o1	inactive
Cc1cc(F)ccc1-c1cc(N2CC[C@@H](O)[C@H]2CO)ncc1N(C)C(=O)C(C)(C)c1cc(C(F)(F)F)cc(C(F)(F)F)c1	active
CO[C@H]1C[C@H](O[C@H]2[C@H](C)[C@@H](O[C@@H]3O[C@H](C)C[C@H](N(C)C)[C@H]3O)[C@@H](C)C[C@]3(CO3)C(=O)[C@H](C)[C@@H](O)[C@@H](C)[C@@H](C)OC(=O)[C@@H]2C)O[C@@H](C)[C@@H]1O	inactive
c1ccc2c(c1)OCC(CN1CCCCC1)O2 (stereo not drawn)	inactive
O=C(O)[C@H]1CN(C/C=C/P(=O)(O)O)CCN1	inactive
O=C(N[C@H](CO)[C@H](O)c1ccc([N+](=O)[O-])cc1)C(Cl)Cl	inactive
C=CC1=C(C(=O)O)N2C(=O)[C@@H](NC(=O)/C(=N/OCC(=O)O)c3csc(N)n3)[C@H]2SC1 (stereo in doubt)	inactive
CCC(C)(C)c1ccc(CC(C)CN2C[C@@H](C)O[C@@H](C)C2)cc1 (stereo partly drawn)	inactive
CC(C)(Oc1ccc(C2CCCc3ccccc32)cc1)C(=O)O (stereo not drawn)	inactive
CC(=O)NC[C@H]1CN(c2ccc(N3CCOCC3)c(F)c2)C(=O)O1	inactive
NCC[C@H](O)C(=O)N[C@@H]1C[C@H](N)[C@@H](O[C@H]2O[C@H](CN)CC[C@H]2N)[C@H](O)[C@H]1O[C@H]1O[C@H](CO)[C@@H](O)[C@H](N)[C@H]1O	inactive
O=C(O)COc1ccc(C(=O)c2cccs2)c(Cl)c1Cl	inactive
NC(=O)C1c2ccccc2CCc2ccccc21	inactive
CNC(=O)OCc1cccc(COC(=O)NC)n1	inactive
CN(C/C=C/c1ccccc1)Cc1cccc2ccccc12	inactive
CC(C)C[C@H](NC(=O)[C@@H](COC(C)(C)C)NC(=O)[C@H](Cc1ccc(O)cc1)NC(=O)[C@H](CO)NC(=O)[C@H](Cc1c[nH]c2ccccc12)NC(=O)[C@H](Cc1cnc[nH]1)NC(=O)[C@@H]1CCC(=O)N1)C(=O)N[C@@H](CCCN=C(N)N)C(=O)N1CCC[C@H]1C(=O)NNC(N)=O	inactive
CC/C=C\C/C=C\C/C=C\C/C=C\C/C=C\CCCC(=O)O	inactive
N#Cc1c(N(CC(=O)O)CC(=O)O)sc(C(=O)O)c1CC(=O)O	inactive
O=P(O)(O)CP(=O)(O)O	inactive
CCCC(CCC)C(=O)OC1C[C@H]2CC[C@@H](C1)[N+]2(C)C (stereo partly drawn)	inactive
CO/N=C(\C(=O)N[C@@H]1C(=O)N2C(C(=O)O)=C(CSc3nc(C)c(CC(=O)O)s3)CS[C@H]12)c1csc(N)n1	inactive
CCCCCCCCCC(=O)NO	inactive
Cc1ccc(C(C)(C)c2ccc(C)cc2)cc1	inactive
CC(C)CCC[C@@H](C)[C@H]1CC[C@H]2[C@@H]3CC=C4C[C@@H](O)CC[C@]4(C)[C@H]3CC[C@]12C	inactive
CCN(CC)CCn1c(=O)c(Cc2ccc(OC)cc2)nc2ccccc21	inactive
NC(=O)[C@H]1O[C@@H](O)[C@H](O)[C@@H](O)[C@@H]1O	inactive
CO/N=C(\C(=O)N[C@@H]1C(=O)N2C(C(=O)[O-])=C(C[n+]3cccc4c3CCC4)CS[C@H]12)c1csc(N)n1	inactive
CC(=O)Oc1cc(C(F)(F)F)ccc1C(=O)O	inactive
Cc1c(N)nc([C@H](CC(N)=O)NC[C@H](N)C(N)=O)nc1C(=O)N[C@H](C(=O)N[C@H](C)[C@@H](O)[C@H](C)C(=O)N[C@H](C(=O)NCCc1nc(-c2nc(C(=O)NCCCCN=C(N)N)cs2)cs1)[C@@H](C)O)[C@@H](O[C@@H]1O[C@@H](CO)[C@@H](O)[C@H](O)[C@@H]1O[C@H]1O[C@H](CO)[C@@H](O)[C@H](OC(N)=O)[C@@H]1O)c1cnc[nH]1	inactive
CCCOC(=O)c1ccc(O)cc1	inactive
